# credit: the supplement of paper PMC7877785

- assay overview: self-splicing fitness, log relative to wild type (ln ratio); higher = more splicing; Tetrahymena group I intron in knt gene, E. coli kanamycin selection, DiMSum; sequences stand for … in CUCUCU…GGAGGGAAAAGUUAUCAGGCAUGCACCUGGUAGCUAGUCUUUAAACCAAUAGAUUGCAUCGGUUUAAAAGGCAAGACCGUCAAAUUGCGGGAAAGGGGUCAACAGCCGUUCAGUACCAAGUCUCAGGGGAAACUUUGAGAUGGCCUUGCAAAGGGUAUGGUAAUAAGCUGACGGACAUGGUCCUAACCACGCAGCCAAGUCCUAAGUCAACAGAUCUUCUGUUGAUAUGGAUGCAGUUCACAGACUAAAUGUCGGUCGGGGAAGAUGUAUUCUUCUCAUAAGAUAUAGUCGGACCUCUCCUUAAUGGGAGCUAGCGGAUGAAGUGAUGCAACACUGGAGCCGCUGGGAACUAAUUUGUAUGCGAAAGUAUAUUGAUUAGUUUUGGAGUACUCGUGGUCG;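 also: selection with 25 µg/mL kanamycin versus none on LB agar overnight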
- run parameters: 30 °C

>  <sequence input>
AAAUAGCAAUAUUACGAUUU

>  <self-splicing fitness (ln)>
-0.479

$$$$
>  <sequence input>
GGUUAGCAAUAUUACGGAAC

>  <self-splicing fitness (ln)>
-1.48

$$$$
>  <sequence input>
CGGGAGCAAUAUUACGUCAA

>  <self-splicing fitness (ln)>
-2.14

$$$$
>  <sequence input>
CGUAAGCAAUAUUACGCAGG

>  <self-splicing fitness (ln)>
-2.25

$$$$
>  <sequence input>
CUUUAGCAAUAUUACGACCG

>  <self-splicing fitness (ln)>
-0.732

$$$$

* * *

- assay overview: self-splicing fitness, log relative to wild type (ln ratio); higher = more splicing; Tetrahymena group I intron in knt gene, E. coli kanamycin selection, DiMSum; sequences stand for … in CUCUCU…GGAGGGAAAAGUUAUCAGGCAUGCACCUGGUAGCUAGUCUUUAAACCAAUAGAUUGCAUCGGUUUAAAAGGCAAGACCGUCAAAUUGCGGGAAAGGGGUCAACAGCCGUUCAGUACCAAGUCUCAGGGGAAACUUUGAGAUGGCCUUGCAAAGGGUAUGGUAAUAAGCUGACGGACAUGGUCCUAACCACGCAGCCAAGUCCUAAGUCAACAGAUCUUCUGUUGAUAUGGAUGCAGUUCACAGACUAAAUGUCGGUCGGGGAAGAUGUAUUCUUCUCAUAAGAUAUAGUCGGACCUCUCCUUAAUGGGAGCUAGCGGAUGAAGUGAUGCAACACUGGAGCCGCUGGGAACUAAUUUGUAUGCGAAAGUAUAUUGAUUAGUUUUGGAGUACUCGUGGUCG
- run parameters: 37 °C
Property: self-splicing fitness (ln); scope: individual sequences
parameter measured: self-splicing fitness (ln)

>  <sequence input>
CCUUAGCAAUAUUACGCUUA

>  <parameter measured>
self-splicing fitness (ln)

>  <quantitative result>
-2.66

$$$$
>  <sequence input>
CGACAGCAAUAUUACGAGAA

>  <parameter measured>
self-splicing fitness (ln)

>  <quantitative result>
-2.41

$$$$
>  <sequence input>
UUAAAGCAAUAUUACGAGAA

>  <parameter measured>
self-splicing fitness (ln)

>  <quantitative result>
-0.717

$$$$
>  <sequence input>
ACGUAGCAAUAUUACGUUAU

>  <parameter measured>
self-splicing fitness (ln)

>  <quantitative result>
-2.34

$$$$
>  <sequence input>
UAGGAGCAAUAUUACGGUUA

>  <parameter measured>
self-splicing fitness (ln)

>  <quantitative result>
0.0427

$$$$
>  <sequence input>
AGAUAGCAAUAUUACGGAGA

>  <parameter measured>
self-splicing fitness (ln)

>  <quantitative result>
-2.76

$$$$
>  <sequence input>
ACCGAGCAAUAUUACGAGUU

>  <parameter measured>
self-splicing fitness (ln)

>  <quantitative result>
-2.87

$$$$
>  <sequence input>
GCACAGCAAUAUUACGGAAC

>  <parameter measured>
self-splicing fitness (ln)

>  <quantitative result>
-0.752

$$$$
>  <sequence input>
UCCUAGCAAUAUUACGGGUG

>  <parameter measured>
self-splicing fitness (ln)

>  <quantitative result>
0.124

$$$$
>  <sequence input>
AUAAAGCAAUAUUACGGCUC

>  <parameter measured>
self-splicing fitness (ln)

>  <quantitative result>
1.04

$$$$
>  <sequence input>
CUACAGCAAUAUUACGCAUG

>  <parameter measured>
self-splicing fitness (ln)

>  <quantitative result>
-1.44

$$$$
>  <sequence input>
AAAUAGCAAUAUUACGCAGC

>  <parameter measured>
self-splicing fitness (ln)

>  <quantitative result>
-0.974

$$$$
>  <sequence input>
UCUAAGCAAUAUUACGCUUC

>  <parameter measured>
self-splicing fitness (ln)

>  <quantitative result>
-1.9

$$$$
>  <sequence input>
UGUGAGCAAUAUUACGCACA

>  <parameter measured>
self-splicing fitness (ln)

>  <quantitative result>
-2.84

$$$$
>  <sequence input>
GUAGAGCAAUAUUACGCCCC

>  <parameter measured>
self-splicing fitness (ln)

>  <quantitative result>
-0.63

$$$$
>  <sequence input>
CUAGAGCAAUAUUACGCUCG

>  <parameter measured>
self-splicing fitness (ln)

>  <quantitative result>
-1.69

$$$$
>  <sequence input>
GUGGAGCAAUAUUACGCGGG

>  <parameter measured>
self-splicing fitness (ln)

>  <quantitative result>
-2.06

$$$$
>  <sequence input>
CGCAAGCAAUAUUACGCCCU

>  <parameter measured>
self-splicing fitness (ln)

>  <quantitative result>
0.327

$$$$
>  <sequence input>
UAUAAGCAAUAUUACGUACC

>  <parameter measured>
self-splicing fitness (ln)

>  <quantitative result>
-1.2

$$$$
>  <sequence input>
CUGAAGCAAUAUUACGCGAG

>  <parameter measured>
self-splicing fitness (ln)

>  <quantitative result>
-0.527

$$$$
>  <sequence input>
AGAGAGCAAUAUUACGAUUC

>  <parameter measured>
self-splicing fitness (ln)

>  <quantitative result>
-1.24

$$$$

* * *

- assay overview: self-splicing fitness, log relative to wild type (ln ratio); higher = more splicing; Tetrahymena group I intron in knt gene, E. coli kanamycin selection, DiMSum; sequences stand for … in CUCUCU…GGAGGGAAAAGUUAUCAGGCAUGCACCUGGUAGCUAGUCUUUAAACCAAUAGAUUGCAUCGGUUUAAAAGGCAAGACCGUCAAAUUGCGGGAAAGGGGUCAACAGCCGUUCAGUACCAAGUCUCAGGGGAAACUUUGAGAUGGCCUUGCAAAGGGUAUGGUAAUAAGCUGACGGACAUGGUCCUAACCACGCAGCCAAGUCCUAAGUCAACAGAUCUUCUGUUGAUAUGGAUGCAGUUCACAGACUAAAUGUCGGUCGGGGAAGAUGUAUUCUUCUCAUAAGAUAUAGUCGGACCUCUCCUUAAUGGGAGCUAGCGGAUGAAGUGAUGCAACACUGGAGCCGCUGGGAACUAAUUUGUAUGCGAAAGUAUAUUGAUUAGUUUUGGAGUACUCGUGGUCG
- run parameters: 37 °C
So basically: self-splicing fitness (ln) at -2 or higher? That is YES. Lower than -2? That is NO.

>  <sequence input>
ACAGAGCAAUAUUACGUAGA

>  <cat>
NO

$$$$
>  <sequence input>
AACUAGCAAUAUUACGUUGA

>  <cat>
YES

$$$$
>  <sequence input>
CAAUAGCAAUAUUACGGACG

>  <cat>
YES

$$$$
>  <sequence input>
GAAGAGCAAUAUUACGCGCC

>  <cat>
YES

$$$$
>  <sequence input>
CUAAAGCAAUAUUACGUUCA

>  <cat>
YES

$$$$
>  <sequence input>
UUGCAGCAAUAUUACGAAUA

>  <cat>
YES

$$$$
>  <sequence input>
GUCCAGCAAUAUUACGUGUA

>  <cat>
YES

$$$$
>  <sequence input>
UAGUAGCAAUAUUACGCUGU

>  <cat>
YES

$$$$
>  <sequence input>
CAGAAGCAAUAUUACGAAGA

>  <cat>
NO

$$$$
>  <sequence input>
UGGAAGCAAUAUUACGGAAU

>  <cat>
YES

$$$$
>  <sequence input>
UUUCAGCAAUAUUACGGGCC

>  <cat>
NO

$$$$
>  <sequence input>
CAUCAGCAAUAUUACGAUCA

>  <cat>
YES

$$$$
>  <sequence input>
CUCUAGCAAUAUUACGCAGU

>  <cat>
NO

$$$$
>  <sequence input>
GGGUAGCAAUAUUACGUGAA

>  <cat>
YES

$$$$
>  <sequence input>
UGAAAGCAAUAUUACGCAUA

>  <cat>
YES

$$$$
>  <sequence input>
GAUUAGCAAUAUUACGUGUU

>  <cat>
YES

$$$$

* * *

- assay overview: self-splicing fitness, log relative to wild type (ln ratio); higher = more splicing; Tetrahymena group I intron in knt gene, E. coli kanamycin selection, DiMSum; sequences stand for … in CUCUCU…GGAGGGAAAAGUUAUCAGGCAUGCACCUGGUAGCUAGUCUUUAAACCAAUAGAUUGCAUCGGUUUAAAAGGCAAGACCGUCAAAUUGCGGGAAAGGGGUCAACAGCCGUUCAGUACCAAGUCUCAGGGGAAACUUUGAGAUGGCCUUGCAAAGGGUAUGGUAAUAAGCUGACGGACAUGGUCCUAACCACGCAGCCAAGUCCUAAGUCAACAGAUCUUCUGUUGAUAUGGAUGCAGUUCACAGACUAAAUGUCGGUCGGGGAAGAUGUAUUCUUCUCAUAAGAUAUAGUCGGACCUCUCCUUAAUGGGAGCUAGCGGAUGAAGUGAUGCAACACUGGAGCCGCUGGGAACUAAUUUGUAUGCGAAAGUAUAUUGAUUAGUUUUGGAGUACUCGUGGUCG
- run parameters: 37 °C
parameter measured: self-splicing fitness (ln)

>  <sequence input>
UACGAGCAAUAUUACGGGCA

>  <parameter measured>
self-splicing fitness (ln)

>  <result>
-0.925

$$$$
>  <sequence input>
CCGAAGCAAUAUUACGCGCA

>  <parameter measured>
self-splicing fitness (ln)

>  <result>
-1.95

$$$$
>  <sequence input>
GUAAAGCAAUAUUACGACCA

>  <parameter measured>
self-splicing fitness (ln)

>  <result>
0.27

$$$$
>  <sequence input>
GCGUAGCAAUAUUACGCCAA

>  <parameter measured>
self-splicing fitness (ln)

>  <result>
-2.7

$$$$
>  <sequence input>
CUGGAGCAAUAUUACGUGUC

>  <parameter measured>
self-splicing fitness (ln)

>  <result>
-3.18

$$$$
>  <sequence input>
UGAAAGCAAUAUUACGCUAU

>  <parameter measured>
self-splicing fitness (ln)

>  <result>
-1.54

$$$$
>  <sequence input>
GGUCAGCAAUAUUACGUGCC

>  <parameter measured>
self-splicing fitness (ln)

>  <result>
-0.811

$$$$
>  <sequence input>
AGGCAGCAAUAUUACGUGGU

>  <parameter measured>
self-splicing fitness (ln)

>  <result>
-1.54

$$$$
>  <sequence input>
AGCGAGCAAUAUUACGGUCA

>  <parameter measured>
self-splicing fitness (ln)

>  <result>
-0.626

$$$$
>  <sequence input>
ACAAAGCAAUAUUACGUCGU

>  <parameter measured>
self-splicing fitness (ln)

>  <result>
-2.05

$$$$
>  <sequence input>
CGUAAGCAAUAUUACGCGCA

>  <parameter measured>
self-splicing fitness (ln)

>  <result>
-0.345

$$$$
>  <sequence input>
CUCGAGCAAUAUUACGGAUG

>  <parameter measured>
self-splicing fitness (ln)

>  <result>
-1.46

$$$$
>  <sequence input>
CGGUAGCAAUAUUACGUGCC

>  <parameter measured>
self-splicing fitness (ln)

>  <result>
-4.06

$$$$
>  <sequence input>
AGUAAGCAAUAUUACGGAGG

>  <parameter measured>
self-splicing fitness (ln)

>  <result>
-2.29

$$$$
>  <sequence input>
CUAAAGCAAUAUUACGUUCC

>  <parameter measured>
self-splicing fitness (ln)

>  <result>
-2.25

$$$$
>  <sequence input>
UACCAGCAAUAUUACGGAGC

>  <parameter measured>
self-splicing fitness (ln)

>  <result>
-3.22

$$$$
>  <sequence input>
CAAGAGCAAUAUUACGGAAC

>  <parameter measured>
self-splicing fitness (ln)

>  <result>
-2.52

$$$$
